Biological target: GST-VND7 NAC domain (Arabidopsis thaliana, UniProt Q9C8W9 9-158)
Sequence: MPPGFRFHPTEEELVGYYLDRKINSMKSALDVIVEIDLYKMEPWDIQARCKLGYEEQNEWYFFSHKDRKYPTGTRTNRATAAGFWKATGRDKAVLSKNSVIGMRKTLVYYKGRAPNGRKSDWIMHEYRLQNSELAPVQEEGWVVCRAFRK
Experiment: universal protein binding microarray (PBM); transcription factors of Arabidopsis thaliana; high values mean tight binding
Conditions: protein: recombinant; tags: GST; chain copies: 2; dsDNA, one strand shown
Please respond with reported binding signal for every item in the list.
Number first, unit second.

Q) For GST-VND7 NAC domain (Arabidopsis thaliana, UniProt Q9C8W9 9-158), provide binding signal of `CACGTCAA` please.
A) 0.278 E-score

Q) For GST-VND7 NAC domain (Arabidopsis thaliana, UniProt Q9C8W9 9-158), provide binding signal of `CACGTCAG` please.
A) 0.214 E-score

Q) For GST-VND7 NAC domain (Arabidopsis thaliana, UniProt Q9C8W9 9-158), provide binding signal of `GTAAGTCA` please.
A) 0.232 E-score

Q) For GST-VND7 NAC domain (Arabidopsis thaliana, UniProt Q9C8W9 9-158), provide binding signal of `GAAGGAAC` please.
A) 0.181 E-score

Q) For GST-VND7 NAC domain (Arabidopsis thaliana, UniProt Q9C8W9 9-158), provide binding signal of `ACGCTAAC` please.
A) 0.113 E-score

Q) For GST-VND7 NAC domain (Arabidopsis thaliana, UniProt Q9C8W9 9-158), provide binding signal of `TGACGTAA` please.
A) 0.392 E-score

Q) For GST-VND7 NAC domain (Arabidopsis thaliana, UniProt Q9C8W9 9-158), provide binding signal of `ATAGCGTG` please.
A) 0.15 E-score

Q) For GST-VND7 NAC domain (Arabidopsis thaliana, UniProt Q9C8W9 9-158), provide binding signal of `AACGTACG` please.
A) 0.209 E-score

Q) For GST-VND7 NAC domain (Arabidopsis thaliana, UniProt Q9C8W9 9-158), provide binding signal of `GTTACTTA` please.
A) 0.248 E-score

Q) For GST-VND7 NAC domain (Arabidopsis thaliana, UniProt Q9C8W9 9-158), provide binding signal of `AAGCAACA` please.
A) 0.146 E-score

Q) For GST-VND7 NAC domain (Arabidopsis thaliana, UniProt Q9C8W9 9-158), provide binding signal of `AAGTCAAA` please.
A) 0.106 E-score

Q) For GST-VND7 NAC domain (Arabidopsis thaliana, UniProt Q9C8W9 9-158), provide binding signal of `GTAAGGAA` please.
A) 0.236 E-score

Q) For GST-VND7 NAC domain (Arabidopsis thaliana, UniProt Q9C8W9 9-158), provide binding signal of `CGTCAACG` please.
A) 0.0989 E-score

Q) For GST-VND7 NAC domain (Arabidopsis thaliana, UniProt Q9C8W9 9-158), provide binding signal of `ACACGTCT` please.
A) 0.421 E-score

Q) For GST-VND7 NAC domain (Arabidopsis thaliana, UniProt Q9C8W9 9-158), provide binding signal of `AAGTAAAG` please.
A) 0.181 E-score

Q) For GST-VND7 NAC domain (Arabidopsis thaliana, UniProt Q9C8W9 9-158), provide binding signal of `CACGTTAA` please.
A) 0.156 E-score

Q) For GST-VND7 NAC domain (Arabidopsis thaliana, UniProt Q9C8W9 9-158), provide binding signal of `ATGCCGTG` please.
A) 0.447 E-score

Q) For GST-VND7 NAC domain (Arabidopsis thaliana, UniProt Q9C8W9 9-158), provide binding signal of `GCGTCAAA` please.
A) 0.0799 E-score

Q) For GST-VND7 NAC domain (Arabidopsis thaliana, UniProt Q9C8W9 9-158), provide binding signal of `GTTACGTA` please.
A) 0.477 E-score

Q) For GST-VND7 NAC domain (Arabidopsis thaliana, UniProt Q9C8W9 9-158), provide binding signal of `CACGCAAC` please.
A) 0.484 E-score

Q) For GST-VND7 NAC domain (Arabidopsis thaliana, UniProt Q9C8W9 9-158), provide binding signal of `TACAGTCA` please.
A) 0.0649 E-score

Q) For GST-VND7 NAC domain (Arabidopsis thaliana, UniProt Q9C8W9 9-158), provide binding signal of `ACGGCAAT` please.
A) 0.317 E-score

Q) For GST-VND7 NAC domain (Arabidopsis thaliana, UniProt Q9C8W9 9-158), provide binding signal of `ATACGCAA` please.
A) 0.433 E-score

Q) For GST-VND7 NAC domain (Arabidopsis thaliana, UniProt Q9C8W9 9-158), provide binding signal of `ATGTCGTG` please.
A) 0.37 E-score

Q) For GST-VND7 NAC domain (Arabidopsis thaliana, UniProt Q9C8W9 9-158), provide binding signal of `ACGCAAAC` please.
A) 0.314 E-score

Q) For GST-VND7 NAC domain (Arabidopsis thaliana, UniProt Q9C8W9 9-158), provide binding signal of `TACGCAAA` please.
A) 0.334 E-score

Q) For GST-VND7 NAC domain (Arabidopsis thaliana, UniProt Q9C8W9 9-158), provide binding signal of `CACGCAAA` please.
A) 0.419 E-score

Q) For GST-VND7 NAC domain (Arabidopsis thaliana, UniProt Q9C8W9 9-158), provide binding signal of `AAGCAAGC` please.
A) 0.114 E-score

Q) For GST-VND7 NAC domain (Arabidopsis thaliana, UniProt Q9C8W9 9-158), provide binding signal of `ACGCCATC` please.
A) 0.108 E-score

Q) For GST-VND7 NAC domain (Arabidopsis thaliana, UniProt Q9C8W9 9-158), provide binding signal of `GCGTAATA` please.
A) 0.246 E-score

Q) For GST-VND7 NAC domain (Arabidopsis thaliana, UniProt Q9C8W9 9-158), provide binding signal of `CTACACGC` please.
A) 0.0812 E-score

Q) For GST-VND7 NAC domain (Arabidopsis thaliana, UniProt Q9C8W9 9-158), provide binding signal of `ATTACGTG` please.
A) 0.437 E-score

Q) For GST-VND7 NAC domain (Arabidopsis thaliana, UniProt Q9C8W9 9-158), provide binding signal of `ACGCAATC` please.
A) 0.38 E-score

Q) For GST-VND7 NAC domain (Arabidopsis thaliana, UniProt Q9C8W9 9-158), provide binding signal of `ACGCTATC` please.
A) 0.0789 E-score

Q) For GST-VND7 NAC domain (Arabidopsis thaliana, UniProt Q9C8W9 9-158), provide binding signal of `ACGTAAGT` please.
A) 0.42 E-score

Q) For GST-VND7 NAC domain (Arabidopsis thaliana, UniProt Q9C8W9 9-158), provide binding signal of `AGTCAACA` please.
A) 0.0805 E-score

Q) For GST-VND7 NAC domain (Arabidopsis thaliana, UniProt Q9C8W9 9-158), provide binding signal of `GCACGGAA` please.
A) 0.453 E-score

Q) For GST-VND7 NAC domain (Arabidopsis thaliana, UniProt Q9C8W9 9-158), provide binding signal of `GAAGTCAA` please.
A) 0.0707 E-score

Q) For GST-VND7 NAC domain (Arabidopsis thaliana, UniProt Q9C8W9 9-158), provide binding signal of `AACACGCA` please.
A) 0.34 E-score

Q) For GST-VND7 NAC domain (Arabidopsis thaliana, UniProt Q9C8W9 9-158), provide binding signal of `ACGTCTCT` please.
A) 0.442 E-score

Q) For GST-VND7 NAC domain (Arabidopsis thaliana, UniProt Q9C8W9 9-158), provide binding signal of `CAAGTTAC` please.
A) 0.184 E-score

Q) For GST-VND7 NAC domain (Arabidopsis thaliana, UniProt Q9C8W9 9-158), provide binding signal of `GTACGTTA` please.
A) 0.148 E-score

Q) For GST-VND7 NAC domain (Arabidopsis thaliana, UniProt Q9C8W9 9-158), provide binding signal of `GTCACGCA` please.
A) 0.252 E-score

Q) For GST-VND7 NAC domain (Arabidopsis thaliana, UniProt Q9C8W9 9-158), provide binding signal of `ACACGCAA` please.
A) 0.482 E-score

Q) For GST-VND7 NAC domain (Arabidopsis thaliana, UniProt Q9C8W9 9-158), provide binding signal of `ATACGGCA` please.
A) 0.44 E-score

Q) For GST-VND7 NAC domain (Arabidopsis thaliana, UniProt Q9C8W9 9-158), provide binding signal of `ACTTAACC` please.
A) 0.209 E-score
